This collection of values is drawn from PubChem BioAssay.

target: Neurogenic locus notch homolog protein 2 (Homo sapiens); test: Notch2 binders on small-molecule microarrays, primary screen, biochemical, small-molecule microarray, 635 nm fluorescence, stem cell growth factors (AID 1073); conditions: Notch2 binding, higher = more signal
value.type: composite z-score

compound	result.number
COCCOC(=O)N1C(=O)[C@@]2(c3ccccc31)[C@H](C(=O)N1CCN(c3ncccn3)CC1)[C@H]1C(=O)O[C@H](c3ccccc3)[C@H](c3ccccc3)N1[C@@H]2c1ccc(OCCO)cc1	1.29
CC(C)CCC[C@@H](C)[C@H]1CC[C@@]2(C)C3=C(CC[C@]12C)[C@@]1(C)CC[C@H](OC(=O)c2ccc(Br)cc2)C(C)(C)C1CC3 (stereo partly drawn)	0.5
O=C1OCC=C[C@H]2OC34C=CCN(Cn5nnc6ccccc65)C(=O)[C@H]3N(CCCCCCO)C(=O)[C@@H]4[C@@H]12 (stereo partly drawn)	-0.522
CN(C)CCCNC(=O)[C@@]1(C)c2ccccc2C(=O)N(Cc2cc(C(F)(F)F)cc(C(F)(F)F)c2)[C@H]1c1ccc(CO)cc1	-0.463
O=C(O)[C@]1(Cc2ccccc2)N=C(c2ccc(OCCCO)cc2)O[C@@H]1c1ccccc1	0.0148
CCOC(=O)[C@@H]1[C@@H]2C(=O)N(CC)C(=O)[C@@H]2C[C@@H]1Sc1ccccc1	1.39
COc1ccc(NC(=O)O[C@H]2[C@H](OC(=O)Nc3ccc4c(c3)OCO4)[C@@H](OC(=O)Nc3ccc4c(c3)OCO4)[C@@H](OC)O[C@@H]2CO)cc1	0.922
CCCc1cccc(=O)o1	0.168
C=CCN1C(=O)[C@@]2(O[C@@H](CCn3cc([C@H](O)c4ccccc4)nn3)[C@H]([Si](C)(C)c3ccc(OC)cc3)[C@H]2C)c2ccccc21	0.501
Cc1ccc(S[C@]2(C(=O)NC(C)C)CC(=O)N(C3Cc4ccccc4C3)[C@@H]2c2ccc(CO)cc2I)cc1	-0.853
CN(C)CCCCNC(=O)[C@H]1C[C@H]2C(=O)N[C@@H](CCCCN(C)C)C(=O)N2[C@H]1c1cccc(OCCO)c1	0.591
C=C[C@H](COC(C)=O)NS(=O)(=O)c1ccc(Br)cc1	-0.506
COC(=O)[C@@]1(Cc2ccc(OC)cc2)[C@H]2c3cc(C(=O)N(C)C)n(CCc4c[nH]c5ccc(O)cc45)c3C[C@H]2CN1C(=O)c1ccccc1	1.69
CCOC(=O)[C@H]1C/C=C/C[C@H](C(=O)OCC)C(=O)O[C@H]2[C@@H](OC)O[C@H](CO)[C@@H](OC(=O)CCc3ccccc3)[C@@H]2OC1=O	-1.08
CN1C(=O)C2C=CC(C(O)c3c(F)cccc3Cl)N(Nc3ccccc3)C2C1=O (stereo not drawn)	1.55
COC(=O)[C@@]1(Cc2ccccc2)[C@H]2c3cc(C(=O)N4CCCC4)n(Cc4ccsc4Br)c3C[C@H]2CN1C(=O)c1ccccc1	1.72
COCCCNC(=O)[C@]1(Cc2ccccc2N=[N+]=[N-])N=C(c2ccc(OCCCO)cc2)O[C@@H]1c1ccccc1N=[N+]=[N-]	1.3
O=C(N1CCCCC1)[C@@]1(Cc2ccccc2)COC(c2ccc(OCCCO)cc2)=N1	1.33
C=CC[C@]12N=C(c3ccc(OCCCO)cc3)O[C@H]1c1ccccc1N(C)C2=O	0.0523
COCCOC(=O)N1C(=O)[C@@]2(c3cc(C#CC4=CCCCC4)ccc31)[C@H](c1ccccc1OCCO)N1[C@H](c3ccccc3)[C@H](c3ccccc3)OC(=O)[C@H]1[C@@H]2C(=O)N1CCc2cc(OC)c(OC)cc2C1	1.18
CO[C@H]1O[C@H](CO)[C@@H](OC(=O)Nc2ccc(C(F)(F)F)cc2)[C@H](OC(=O)Nc2ccc3c(c2)OCO3)[C@H]1OC(=O)Nc1ccc2c(c1)OCO2	1.41
COCCOC(=O)N1C(=O)[C@@]2(c3cc(C#CCC(C(=O)OC)C(=O)OC)ccc31)[C@H](c1ccc(OCCO)cc1)N1[C@H](c3ccccc3)[C@H](c3ccccc3)OC(=O)[C@H]1[C@@H]2C(=O)N1CCN(c2ncccn2)CC1	1.25
[N-]=[N+]=NCc1ccccc1C[C@]1(C(=O)NCC(O)CO)N=C(c2ccc(OCCCO)cc2)O[C@H]1c1ccccc1CN=[N+]=[N-] (stereo partly drawn)	0.566

----------
molecular target: Torsin-1A-interacting protein 1 (Homo sapiens); assay: LAP1 binders from COS7 cell lysate, primary screen, small-molecule microarray, 635/667 nm fluorescence (AID 1116); details: COS7-hLAP1 lysate binding, 635 nm fluorescence, higher = more signal
value.type: composite z-score

molecule	tested.on	result.number
COCCOC(=O)N1C(=O)[C@@]2(c3cc(C#CC4(O)CCCCCC4)ccc31)[C@H](c1ccccc1OCCO)N1[C@H](c3ccccc3)[C@H](c3ccccc3)OC(=O)[C@H]1[C@@H]2C(N)=O	Torsin-1A-interacting protein 1 (Homo sapiens)	0.425
CCCC[C@@H]1C[C@H]1[C@@H](NC(=O)c1cccnc1)c1ccc(-c2ccccc2)cc1	Torsin-1A-interacting protein 1 (Homo sapiens)	-1.2
COc1ccc(C(O)C2C=CC3C(=O)N(c4ccccc4)C(=O)C3N2Nc2ccc(C#N)cc2)c2ccccc12 (centres undefined)	Torsin-1A-interacting protein 1 (Homo sapiens)	1.83
CN(C)CCCNC(=O)[C@@H]1c2ccccc2C(=O)N(Cc2ccc(OC(F)(F)F)cc2)[C@H]1c1ccc(CO)cc1	Torsin-1A-interacting protein 1 (Homo sapiens)	0.724

----------
assay: Plasmodium falciparum growth inhibition, primary screen, strain 3D7, DAPI fluorescence, 100 nL (AID 1184);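 also: parasites grown inside human red blood cells in medium with human serum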; settings: P. falciparum 3D7 growth, 3 d, higher = more signal
Each entry below lists one item and its recorded z-score value.
value.type: z-score

smiles.input	result.number
COCCOC(=O)N1C(=O)[C@@]2(c3cc(C#CCC(C(=O)OC)C(=O)OC)ccc31)[C@H](c1ccc(OCCO)cc1)N1[C@H](c3ccccc3)[C@H](c3ccccc3)OC(=O)[C@H]1[C@@H]2C(=O)N1CCN(c2ncccn2)CC1	-2.25
C=CCOC(=O)[C@@H]1[C@H]2C(=O)O[C@H](c3ccccc3)[C@H](c3ccccc3)N2[C@H](c2ccc(OCCOC(=O)[C@H]3C[C@H]4C(=O)N[C@@H](CCCCNC(C)=O)C(=O)N4[C@H]3c3cccc(OCCO)c3)cc2)[C@@]12C(=O)Nc1ccc(I)cc12	-1.64
Cc1ccc(S[C@]2(C(=O)NCC(F)(F)F)CC(=O)N(Cc3ccccc3)[C@@H]2c2ccc(CO)cc2)cc1	-1.57

----------
assay: modulators of S6 phosphorylation in cells, primary screen, cell-based, A549, cytoblot, luminescence, serum-stimulated (AID 1158); details: A549 phospho-S6 cytoblot, 5 h, higher = more signal;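 also: serum-stimulated A549 lung adenocarcinoma cells; signal is phosphorylated S6 detected by cytoblot immunostaining with HRP secondary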
Rule: z-score of 0.3 or more gives yes; anything lower gives no.

molecule	group
CCOC(=CC(=O)OC)CC(O)c1cccc(Cl)c1 (stereo not drawn)	yes
C=C(/C(=C/C[C@@H](OC(=O)c1ccncc1)c1ccccc1OCCO)c1cc(C(=O)OC)ccc1OC)C(C)C	yes
O=C1O[C@@H](c2ccccc2)[C@@H](c2ccccc2)N2[C@@H](c3ccc(O)cc3)[C@]3(C(=O)Nc4ccc(C#CCCO)cc43)[C@@H](C(=O)NC[C@H](O)c3ccccc3)[C@H]12	no
CC(C)CN1C(=O)[C@@]2(c3ccc([N+](=O)[O-])cc3)CC(=O)N(CC34CC5CC(CC(C5)C3)C4)[C@@H]2c2ccc(CO)cc21	yes
CCCc1cccc(=O)o1	no
COCCOC(=O)N1C(=O)[C@@]2(c3cc(C#CC4=CCCCC4)ccc31)[C@H](c1ccc(O)cc1)N1[C@H](c3ccccc3)[C@H](c3ccccc3)OC(=O)[C@H]1[C@@H]2C(=O)Nc1nc2ccccc2s1	no
C=CCOC(=O)[C@H]1[C@@H]2C(=O)O[C@@H](c3ccccc3)[C@@H](c3ccccc3)N2[C@@H](c2ccc(OCCOC(=O)[C@H]3C[C@H]4C(=O)N[C@@H](CCCC[N+](C)(C)C)C(=O)N4[C@H]3c3cccc(OCCO)c3)cc2)[C@]12C(=O)Nc1ccc(I)cc12	yes
CN(C)CCCNC(=O)[C@@H]1c2ccccc2C(=O)N(Cc2ccc(OC(F)(F)F)cc2)[C@H]1c1ccc(CO)cc1	no
C[n+]1ccc(CCCO)cc1	no
Cc1ccc(F)cc1S(=O)(=O)N[C@@H]1CCN(Cc2ccc(OC(C)C)cc2)C1	no
COc1ccc(C(O)C2C=CC3C(=O)N(c4ccccc4)C(=O)C3N2Nc2ccc(C#N)cc2)c2ccccc12 (stereo not drawn)	no
CN1C(=O)C2C(C1=O)C1C=C(c3ccc(CO)cc3)C2C(c2cccs2)N1Cc1cccc(OC(F)(F)F)c1 (stereo not drawn)	yes
CCOC(=O)C1=CC[C@@H](c2ccc([N+](=O)[O-])cc2)N(S(=O)(=O)c2ccc(C)cc2)[C@H]1c1ccccc1	no
CC(C)c1ccc(NN2C(C(O)c3ccco3)C=CC3C(=O)N(c4ccccc4)C(=O)C32)cc1 (stereo not drawn)	no
COc1ccc([Si](C)(C)[C@H]2[C@H](CCO)O[C@@]3(C(=O)N(Cc4cccc(N5CCCCC5=O)c4)c4ccccc43)[C@@H]2C)cc1	yes
COCCCNC(=O)[C@@]1(Sc2ccc(C)cc2)CC(=O)N(C2Cc3ccccc3C2)[C@@H]1c1ccc(CO)cc1I	no
C=C(CCCC)C(=O)CC[C@@H](OC(=O)c1cccnc1)c1ccccc1OCCO	yes
CCOC(=O)C[C@H]1[C@H](OC(=O)Cc2ccc3c(c2)OCO3)[C@@H](NC(=O)C2CCCCC2)c2cc(OCCCO)ccc2N1C(=O)c1ccc2ccccc2n1	yes
COCCOC(=O)N1C(=O)[C@@]2(c3cc(C#CC4(O)CCCCCC4)ccc31)[C@H](c1ccccc1OCCO)N1[C@H](c3ccccc3)[C@H](c3ccccc3)OC(=O)[C@H]1[C@@H]2C(N)=O	no
CO[C@H]1O[C@H](CO)[C@@H](OC(=O)Nc2ccccc2-c2ccccc2)[C@H](OC(=O)Nc2ccc3c(c2)OCO3)[C@@H]1OC(=O)Nc1ccc2c(c1)OCO2	no
C=CCOC(=O)[C@H]1[C@@H]2C(=O)O[C@@H](c3ccccc3)[C@@H](c3ccccc3)N2[C@@H](c2ccc(OCCOC(=O)[C@H]3C[C@H]4C(=O)N[C@@H](Cc5ccccc5)C(=O)N4[C@H]3c3ccc(O)cc3)cc2)[C@]12C(=O)Nc1ccc(I)cc12	no
COC(=O)C1(Cc2ccccc2)C=C2C(=C(c3ccccc3)C(=O)C2C)CN1 (stereo not drawn)	no
CC=CC(O)C1C=CC2C(=O)N(C)C(=O)C2N1N1CCCCC1 (stereo not drawn)	no
C=CCC(OC(C)=O)[C@@H]1[C@@H](N(Cc2cc3ccccc3o2)C(=O)Cc2ccc(F)cc2)c2cc(OCCCO)ccc2N1C(=O)c1ccc2ccccc2n1 (stereo partly drawn)	no
C[N+](C)(C)CCCC[C@@H]1NC(=O)[C@@H]2C[C@H](C(=O)O)[C@H](c3ccc(O)cc3)N2C1=O	yes
COc1ccc([Si](C)(C)[C@H]2[C@H](CCn3cc(CCO)nn3)O[C@@]3(C(=O)N(Cc4ccc(N5C(=O)c6cccc7cccc5c67)cc4)c4ccccc43)[C@@H]2C)cc1	yes
CCN(CC)c1ccc(N2CC=CC34O[C@@H]5/C=C\CCC(C)OC(=O)C5[C@H]3C(=O)N(CCO)[C@@H]4C2=O)cc1 (stereo partly drawn)	no
CC(C)C(=C=CC[C@H](O)c1ccc(OCCO)cc1)C[C@H](O)c1cc(Cl)cc(Cl)c1O	no
